inhibition listing for selected compounds.
# TARGET_SYSTEM: Platelet-derived growth factor receptor beta (Homo sapiens) (UniProt P09619);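 also: reported value is the mean percent inhibition of the kinase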
# Sequence (P09619 whole entry): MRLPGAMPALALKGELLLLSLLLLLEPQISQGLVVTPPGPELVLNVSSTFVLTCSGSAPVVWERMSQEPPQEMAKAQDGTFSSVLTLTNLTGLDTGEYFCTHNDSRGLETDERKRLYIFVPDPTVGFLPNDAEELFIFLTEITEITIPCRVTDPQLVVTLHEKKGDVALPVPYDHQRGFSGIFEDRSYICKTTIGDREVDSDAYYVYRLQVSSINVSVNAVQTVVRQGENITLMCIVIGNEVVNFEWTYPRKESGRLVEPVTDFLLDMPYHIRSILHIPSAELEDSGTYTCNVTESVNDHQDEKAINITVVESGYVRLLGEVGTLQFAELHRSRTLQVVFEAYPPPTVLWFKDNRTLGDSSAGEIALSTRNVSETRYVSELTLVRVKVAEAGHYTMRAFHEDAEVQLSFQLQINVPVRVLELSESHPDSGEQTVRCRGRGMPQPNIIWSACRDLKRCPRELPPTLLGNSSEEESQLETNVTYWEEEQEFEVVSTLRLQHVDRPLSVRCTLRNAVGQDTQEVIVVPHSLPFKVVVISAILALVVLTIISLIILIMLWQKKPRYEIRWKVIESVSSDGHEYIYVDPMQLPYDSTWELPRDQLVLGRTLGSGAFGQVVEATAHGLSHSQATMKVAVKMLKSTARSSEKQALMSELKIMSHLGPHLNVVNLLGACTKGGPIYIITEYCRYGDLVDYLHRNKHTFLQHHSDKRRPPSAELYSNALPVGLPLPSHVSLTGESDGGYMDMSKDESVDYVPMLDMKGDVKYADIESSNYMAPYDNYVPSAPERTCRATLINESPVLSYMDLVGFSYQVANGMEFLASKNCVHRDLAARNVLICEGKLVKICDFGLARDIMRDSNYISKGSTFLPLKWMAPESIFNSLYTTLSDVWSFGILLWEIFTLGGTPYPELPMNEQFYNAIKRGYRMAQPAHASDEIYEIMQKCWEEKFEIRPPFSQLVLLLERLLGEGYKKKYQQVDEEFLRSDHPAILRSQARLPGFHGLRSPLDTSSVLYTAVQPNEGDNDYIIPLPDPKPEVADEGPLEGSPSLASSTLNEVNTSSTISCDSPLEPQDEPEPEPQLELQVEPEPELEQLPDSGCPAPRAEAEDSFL
# STATED_CONDITIONS: at 0.1 µM

Known results for compounds:
# COMPOUND, TARGET_SYSTEM, inhibition
measured = [
    ("CS(=O)(=O)Nc1ccc(N/C=C2\\C(=O)Nc3ccccc32)cc1", "Platelet-derived growth factor receptor beta (Homo sapiens) (UniProt P09619)", "6.47%"),
    ("NS(=O)(=O)c1cccc(-c2ccc3c(NC(=O)C4CC4)n[nH]c3c2)c1", "Platelet-derived growth factor receptor beta (Homo sapiens) (UniProt P09619)", "0.91%"),
    ("Cc1nn(C)c2cc(N(C)c3ccnc(Nc4cccc(S(N)(=O)=O)c4)n3)ccc12", "Platelet-derived growth factor receptor beta (Homo sapiens) (UniProt P09619)", "18.2%"),
    ("O=C1NC(=O)C(c2cccc(Cl)c2)=C1Nc1ccc(O)c(Cl)c1", "Platelet-derived growth factor receptor beta (Homo sapiens) (UniProt P09619)", "0.85%"),
    ("CCCN1CCC(Oc2cc(Nc3nc(Nc4cccc(F)c4C(N)=O)c4cc[nH]c4n3)c(OC)cc2Cl)CC1", "Platelet-derived growth factor receptor beta (Homo sapiens) (UniProt P09619)", "4.35%"),
]

Continue with the compound presented below.
Provide only the value of recorded inhibition for `O=C1NC(=O)C(c2ccc(Cl)cc2)=C1Nc1ccc(Cl)c(C(=O)O)c1` 4.09%
